Reference for the values: patent US20130035326A1

Reported Kd values, UniProt P07333.

molecule="CC(C)(C)c1cc(NC(=O)Cc2ccc(-c3cnc(N)nc3)cn2)no1 [Example 77]" parameter_measured=Kd recorded_measurement="≤ 10 nM"

Task: Entry CC(C)(C)c1cc(NC(=O)Nc2ccc(-c3cnc(N)nc3)cc2)no1 [Example 44] , system UniProt P07333: what Kd was measured?
Result: ≤ 10 nM

Task: Entry CC(C)(C)c1cc(NC(=O)Nc2ccc(-c3ccc(NCCN4CCOCC4)nc3)cc2)no1 [Example 7] , system UniProt P07333: what Kd was measured?
Result: ≤ 10 nM

---

Reported Kd values, KIT kinase (Homo sapiens).

molecule="Cn1nc(C(C)(C)CF)cc1NC(=O)Nc1ccc(-c2ccc(N)nc2)cc1 [Example 90, acetate]" assay_target="KIT kinase (Homo sapiens)" recorded_measurement="1 to 10 nM"

Task: Entry "CC(C)(C)c1cc(NC(=O)Nc2ccc(-c3cnc(CN4CCOCC4)nc3)cc2)no1" , system KIT kinase (Homo sapiens): what Kd was measured?
Result: 1 to 10 nM

Task: Entry CS(=O)(=O)O.Cc1nc(-c2ccc(CC(=O)Nc3cc(C(C)(C)C)on3)cc2)cnc1N [Example 113, methanesulfonate] , system KIT kinase (Homo sapiens): what Kd was measured?
Result: 1 to 10 nM

Task: Entry CC(C)(C)c1cc(NC(=O)Cc2ccc(-c3cc(F)c(N)nc3F)cc2)no1.CS(=O)(=O)O [Example 152, methanesulfonate] , system KIT kinase (Homo sapiens): what Kd was measured?
Result: 1 to 10 nM

---

Reported Kd values, KIT kinase (Homo sapiens, UniProt P10721).

Past entries and their recorded results:
compound="CC(CF)(CF)c1cc(NC(=O)Nc2ccc(-c3ccc(N)nc3)cc2)no1 [Example 34, methanesulfonate]" recorded_measurement="≤ 1 nM"
compound="CS(=O)(=O)O.Nc1ccc(-c2ccc(CC(=O)Nc3cc(C4(C(F)(F)F)CC4)on3)c(F)c2)cn1 [Example 139, methanesulfonate]" recorded_measurement="1 to 10 nM"
compound=CC(C)(C)c1cc(NC(=O)Nc2ccc(-c3cnc(N)c(CO)c3)cc2)no1 recorded_measurement="1 to 10 nM"
compound=Cn1cc(-c2cc(-c3ccc(CC(=O)Nc4cc(C(C)(C)C)on4)cc3)cnc2N)cn1 recorded_measurement="1 to 10 nM"
compound="COc1nc(N)ccc1-c1ccc(CC(=O)Nc2cc(C(C)(C)C)on2)cc1.CS(=O)(=O)O [Example 131, methanesulfonate]" recorded_measurement="10 to 100 nM"
compound=CC(C)(C)c1cc(NC(=O)Cc2ccc(-c3cnc(N)nc3)cc2F)no1 recorded_measurement="1 to 10 nM"

Task: Entry "Cc1nc(N)ncc1-c1ccc(NC(=O)Nc2cc(C(C)(C)C)on2)cc1" , system KIT kinase (Homo sapiens, UniProt P10721): what Kd was measured?
Result: ≤ 1 nM

Task: Entry CC(C)(C)c1cc(NC(=O)Cc2ccc(-c3cnc(N)cc3F)cc2)no1.CS(=O)(=O)O [Example 151, methanesulfonate] , system KIT kinase (Homo sapiens, UniProt P10721): what Kd was measured?
Result: 10 to 100 nM

Task: Entry "CC(CF)(CF)c1cc(NC(=O)Nc2ccc(-c3ccc(N)nc3)cn2)no1" , system KIT kinase (Homo sapiens, UniProt P10721): what Kd was measured?
Result: ≤ 1 nM

Task: Entry "CC(C)(C)c1cc(NC(=O)Nc2ccc(-c3cnc(N)nc3)cc2)no1" , system KIT kinase (Homo sapiens, UniProt P10721): what Kd was measured?
Result: 1 to 10 nM

Task: Entry "O=C(Cc1cccc(C(F)(F)F)c1)Nc1ccc(-c2cnc(NC3CC3)nc2)cn1" , system KIT kinase (Homo sapiens, UniProt P10721): what Kd was measured?
Result: ≤ 1 nM

Task: Entry "Cc1nc(N)cnc1-c1ccc(CC(=O)Nc2cc(C(C)(C)C)on2)cc1" , system KIT kinase (Homo sapiens, UniProt P10721): what Kd was measured?
Result: 1 to 10 nM

Task: Entry CS(=O)(=O)O.Cc1cc(-c2ccc(CC(=O)Nc3cc(C4(C)COC4)on3)cc2)cnc1N [Example 145, methanesulfonate] , system KIT kinase (Homo sapiens, UniProt P10721): what Kd was measured?
Result: 1 to 10 nM

Task: Entry CC(C)(C)c1cc(NC(=O)Nc2ccc(-c3ccc(N)nc3)cc2)on1 [Example 70, methanesulfonate] , system KIT kinase (Homo sapiens, UniProt P10721): what Kd was measured?
Result: 1 to 10 nM

Task: Entry CC1(c2cc(NC(=O)Cc3ccc(-c4cnc(N)c(Cl)c4)cc3)no2)COC1.CS(=O)(=O)O [Example 128, methanesulfonate] , system KIT kinase (Homo sapiens, UniProt P10721): what Kd was measured?
Result: 1 to 10 nM

Task: Entry "CC(C)(C)c1cc(NC(=O)Nc2ccc(-c3ccc(N)nc3)cn2)no1" , system KIT kinase (Homo sapiens, UniProt P10721): what Kd was measured?
Result: ≤ 1 nM

---

Reported Kd values, CSF-1R kinase (Homo sapiens, UniProt P07333).

Past entries and their recorded results:
compound=CC(C)(C)c1cc(NC(=O)Nc2ccc(-c3ccc(N)nc3)cn2)no1 assay_target="CSF-1R kinase (Homo sapiens, UniProt P07333)" parameter_measured=Kd recorded_measurement="≤ 0.01 µM"
compound="CC(C)(C)c1cc(NC(=O)Cc2ccc(-c3cnc(N)c(C#N)c3)cc2)no1 [Example 93, methanesulfonate]" assay_target="CSF-1R kinase (Homo sapiens, UniProt P07333)" parameter_measured=Kd recorded_measurement="≤ 0.01 µM"

Task: Entry "CN1CC(=O)Nc2ncc(-c3ccc(CC(=O)Nc4cc(C(C)(C)C)on4)cc3)cc2C1" , system CSF-1R kinase (Homo sapiens, UniProt P07333): what Kd was measured?
Result: 0.1 to 0.5 µM

Task: Entry CS(=O)(=O)O.Nc1ccc(-c2ccc(CC(=O)Nc3cc(C4CCC4)no3)cc2)cn1 [Example 143, methanesulfonate] , system CSF-1R kinase (Homo sapiens, UniProt P07333): what Kd was measured?
Result: ≤ 0.01 µM

Task: Entry Nc1ccc(-c2ccc(NC(=O)Nc3cc(C4(C(F)(F)F)CC4)on3)cc2)cn1 [Example 33, methanesulfonate] , system CSF-1R kinase (Homo sapiens, UniProt P07333): what Kd was measured?
Result: ≤ 0.01 µM

Task: Entry "CC(C)(C)c1cc(NC(=O)Nc2ccc(-c3cnc(CN4CCOCC4)nc3)cc2)no1" , system CSF-1R kinase (Homo sapiens, UniProt P07333): what Kd was measured?
Result: 0.1 to 0.5 µM

Task: Entry CC(C)(C)c1cc(NC(=O)Nc2ccc(-c3ccc(N)nc3)cc2)on1 [Example 70, methanesulfonate] , system CSF-1R kinase (Homo sapiens, UniProt P07333): what Kd was measured?
Result: ≤ 0.01 µM

Task: Entry CC(C)(C)c1cc(NC(=O)Cc2c(F)cc(-c3ccc(N)nc3)cc2F)no1.CS(=O)(=O)O [Example 123, methanesulfonate] , system CSF-1R kinase (Homo sapiens, UniProt P07333): what Kd was measured?
Result: ≤ 0.01 µM

Task: Entry "CC(C)(C)c1cc(NC(=O)Nc2ccc(-c3ccc(N)nc3)s2)no1" , system CSF-1R kinase (Homo sapiens, UniProt P07333): what Kd was measured?
Result: 0.01 to 0.1 µM

Task: Entry CS(=O)(=O)O.Nc1ncc(-c2ccc(CC(=O)Nc3cc(C4(C(F)(F)F)CC4)on3)cc2)cc1Cl [Example 133, methanesulfonate] , system CSF-1R kinase (Homo sapiens, UniProt P07333): what Kd was measured?
Result: ≤ 0.01 µM

Task: Entry CC1(c2cc(NC(=O)Nc3ccc(-c4ccc(N)nc4)cc3)no2)CC1(F)F.CS(=O)(=O)O (centres unmarked) [Example 112, methanesulfonate] , system CSF-1R kinase (Homo sapiens, UniProt P07333): what Kd was measured?
Result: ≤ 0.01 µM

Task: Entry "Cc1nc(N)ccc1-c1ccc(NC(=O)Nc2cc(C(C)(C)C)on2)cc1" , system CSF-1R kinase (Homo sapiens, UniProt P07333): what Kd was measured?
Result: ≤ 0.01 µM

Task: Entry "CC(C)c1cc(NC(=O)Cc2ccc(-c3ccc(N)nc3)cc2)no1" , system CSF-1R kinase (Homo sapiens, UniProt P07333): what Kd was measured?
Result: ≤ 0.01 µM

Task: Entry "Cc1nc(N)cnc1-c1ccc(CC(=O)Nc2cc(C(C)(C)C)on2)cc1" , system CSF-1R kinase (Homo sapiens, UniProt P07333): what Kd was measured?
Result: 0.01 to 0.1 µM

Task: Entry "CC(C)(C)c1cc(NC(=O)Cc2ccc(-c3cnc(N)c(C(F)F)c3)cc2)no1" , system CSF-1R kinase (Homo sapiens, UniProt P07333): what Kd was measured?
Result: ≤ 0.01 µM

Task: Entry CC(C)(CO)c1cc(NC(=O)Nc2ccc(-c3ccc(N)nc3)cc2)on1 [Example 81, methanesulfonate] , system CSF-1R kinase (Homo sapiens, UniProt P07333): what Kd was measured?
Result: ≤ 0.01 µM

Task: Entry CC(C)(C)c1cc(NC(=O)Cc2ccc(-c3ccc(N)nc3)cc2)on1 [Example 84, methanesulfonate] , system CSF-1R kinase (Homo sapiens, UniProt P07333): what Kd was measured?
Result: ≤ 0.01 µM

Task: Entry "CC1(c2cc(NC(=O)Cc3ccc(-c4ccc(NCCS(C)(=O)=O)nc4)cc3)no2)CC1" , system CSF-1R kinase (Homo sapiens, UniProt P07333): what Kd was measured?
Result: ≤ 0.01 µM

Task: Entry CC(C)(C)c1cc(NC(=O)Cc2ccc(-c3cnc(N)c([S+]([O-])C(C)(C)C)c3)cc2)no1 (centres unmarked) , system CSF-1R kinase (Homo sapiens, UniProt P07333): what Kd was measured?
Result: 0.1 to 0.5 µM

Task: Entry CC(C)(C)c1cc(NC(=O)Cc2ccc(-c3cnc(N)c(C(N)=O)n3)cc2)no1 [Example 114, methanesulfonate] , system CSF-1R kinase (Homo sapiens, UniProt P07333): what Kd was measured?
Result: ≤ 0.01 µM
